Values compiled from PubChem BioAssay (NCI).

Tested on: SNB-75 CNS
Experiment: NCI tumour cell line growth inhibition, 48 h; in the data active = GI50 below about 0.43 µM; inactive = the rest
Mark one answer only. Choices: 1 for active, -1 for inactive

[[record]]
compound = "Nc1c(C(=O)Nc2cccc(Br)c2)sc2nc3c(cc12)C(=O)CCC3"
label = -1

[[record]]
compound = "Cc1cn2c(/C=C3\\C(=O)Nc4ccc(O)cc43)c(-c3ccc(Cl)cc3)nc2s1"
label = -1

[[record]]
compound = "COc1cccc2c1C(=O)c1c(O)c3c(c(O)c1C2=O)CC(O)(/C(C)=N/NC(=O)CCC(=O)N/N=C(\\C)C1(O)Cc2c(O)c4c(c(O)c2C(OC2CC(N)C(O)C(C)O2)C1)C(=O)c1c(OC)cccc1C4=O)CC3OC1CC(N)C(O)C(C)O1 (centres undefined)"
label = 1


Now for another entry.
-- ask Recorded test call requested for O=c1[nH]c(=O)n(C2CC(O)C(CO)O2)cc1CO (centres undefined)
-- reply -1

====

Catalogue of GI50 readings, one per entry.
System: HCT-15 colon
Experiment: NCI tumour cell line growth inhibition, 48 h

The cases that follow already have their GI50 on record.
[[record]]
compound = "COc1cc(CNCCCN2C(=O)c3ccc4c5c(ccc(c35)C2=O)C(=O)N(CCCNCc2cc(OC)c(OC)c(OC)c2)C4=O)cc(OC)c1OC"
result = "1.18 µM"

[[record]]
compound = "CCCCCCNC(=O)c1nc(-c2ccccc2)oc1Cc1ccc(OP(=O)(O)O)cc1"
result = "17.8 µM"

[[record]]
compound = "CC(C)=CCc1cc(O)cc2c1OC(C=C(C)C)C1=C2C(=O)C2=C(NCCS2(=O)=O)C1=O (stereo not given)"
result = "2.74 µM"


-- ask Quick one: GI50 for CCCn1c(N)c(C(=O)N/N=C(/C)c2cc3cccc(OC)c3o2)sc1=S ?
-- reply 22.1 µM

-- ask # GI50 lookup, item CCOc1ccc2nc(S/C(=C/C=C(C#N)C#N)c3ccc(C)cc3)sc2c1
-- reply 12.2 µM

====

Tested on: UO-31 renal
Test: NCI tumour cell line growth inhibition, 48 h
measure: TGI

[[record]]
compound = "COc1cccc(/C=N/[N-]C(=O)c2ccncc2)c1[O-].[Cu+2].[OH3+]"
result = "> 100 µM"

[[record]]
compound = "CCCC(O)C(NC(=O)CCl)C(=O)O (configuration not stated)"
result = "> 100 µM"

[[record]]
compound = "NCCCNCCCCNCCCN"
result = "5.02 µM"


-- ask Data request, read-out TGI, for CC(=O)Nc1ccc2cc(C)c(=O)[nH]c2n1
-- reply > 100 µM

-- ask Recorded TGI of C[C@H]1C2Cc3cc(N)ccc3[C@@]1(C)CCN2CCc1ccccc1 , please.
-- reply > 100 µM

-- ask Need TGI of Cc1ccc(-c2nc3ccc([N+](=O)[O-])cc3[nH]2)cc1 , thanks.
-- reply > 100 µM

====

Tested on: SK-MEL-28 melanoma
Assay: NCI tumour cell line growth inhibition, 48 h
Recorded TGI, one value per entry.

See these solved cases before continuing.
[[record]]
compound = "COC(=O)C1(OC(=O)Sc2ccccc2)CCN(C)CC1"
result = "> 100 µM"

[[record]]
compound = "Cn1cnc([N+](=O)[O-])c1S(=O)(=O)Oc1ccccc1"
result = "32.2 µM"

[[record]]
compound = "Cc1c(O)c(C)c2c(C)cn(C(=O)C(C)(C)C)c2c1C"
result = "28.7 µM"

[[record]]
compound = "CC(=C\\c1ccccc1)/C=C(\\C#N)C(N)=O"
result = "> 10 µM"

[[record]]
compound = "CCN(CC)c1nc(-c2ccc(Cl)cc2Cl)nc2ccccc12"
result = "> 100 µM"


-- ask Please look up its TGI: Oc1cc(O)c2c(c1)OC(c1ccc(O)c(O)c1)C(OC1(c3cc(O)c(O)c(O)c3)Oc3cc(O)cc(O)c3C(O)C1O)C2 (stereo not given)
-- reply > 68.5 µM

-- ask Can you share its TGI? I mean this compound: O=C1C[C@H]2[C@@H](O1)[C@@H](O)CN1C(=O)c3ccccc3[C@H]21
-- reply > 100 µM

-- ask What does the data say about its TGI? Entry: CCOC(=O)C1=C(N)Oc2ccc(Br)cc2C1C(C#N)C(=O)OCC (stereo not given)
-- reply 32.4 µM

-- ask Which TGI value belongs to COc1ccc(/C(=N\NC(=O)C(N)=O)C(c2ccc(OC)cc2)C2(O)C(=O)Nc3c(Cl)cccc32)cc1 (stereo not given) ?
-- reply > 100 µM

-- ask Could you share which TGI value was measured for COc1ccc(C(OCC2OC(n3cc(C)c(=O)[nH]c3=O)CC2n2cc(Cn3cc(Br)c(=O)[nH]c3=O)nn2)(c2ccccc2)c2ccccc2)cc1 (stereo not given) ?
-- reply > 100 µM

-- ask Consider the compound shown here: COc1cc(-c2nn(-c3cccc(NC(=O)Nc4ccc(Cl)c(Cl)c4)c3)cc2-c2ccncc2)ccc1Cl What is its recorded TGI?
-- reply 7.32 µM
